Property name: melting point

| Compound | Value |
| --- | --- |
| CCOC(=O)Cc1c([N+](=O)[O-])cc(OCc2ccccc2)c2ccccc12 | 128 to 130 °C |
| c1ccc2c(c1)CCc1ccc(-c3nnn[nH]3)cc1S2 | 205 °C |
| CC(=O)Oc1cc2c(c3ccccc13)N(C(C)=O)c1ccccc1S2 | 141 to 142 °C |
| NC(=S)NCC(c1ccccc1)c1ccccc1 | 205 to 207 °C |
| CC1CC(=O)NN=C1c1ccc2[nH]c(-c3ccncc3)cc2c1 (stereo unspecified) | 301 to 303 °C |

As a next step, examine the compound that follows.
Data point: CCCCCCCCCCCCCCCCSCC(CNS(=O)(=O)CCCI)NC(=O)OCCCC (stereo unspecified) ; melting point = 82 to 83 °C
